Attribution: a melting point compilation (Tetko et al.)

parameter.measured: melting point

Solved cases below.
COc1ccc(NC(N)=S)cc1 : 208 to 210 °C
Cc1ccc(C(=O)NCCN)cc1F : 71 to 73 °C
Cn1cnnc1-c1ccccc1 : 114 to 116 °C
COc1ccc(-c2nc(N)sc2-c2ccc(OC)cc2)cc1 : 207 to 209 °C
O=C(O)CNC(=O)c1ccc(F)cc1 : 169 to 171 °C

Consider the molecule shown here: CC(C)(C)OC(=O)NC1CCCN(Cc2ccccc2)C1 (configuration not stated) What is its recorded melting point?
118 to 120 °C

Consider the molecule shown here: Nc1c(-c2ccc(F)cc2)nc2sccn12 What is its recorded melting point?
137 to 139 °C

---

parameter.measured: melting point

Solved cases below.
Nc1c(Cl)ccc2nsnc12 : 89 to 91 °C
O=CC1=Cc2c(ccc3ccccc23)OC1 : 144 to 146 °C
O=S(=O)(Cl)c1ccc2nc(Cl)ccc2c1 : 138 to 140 °C
Nc1nnc(Cc2ccc(Cl)cc2)o1 : 167 to 169 °C

Consider the compound shown here: CC1CCC(NS(=O)(=O)c2ccc(Cl)c([N+](=O)[O-])c2)CC1 (stereo not given) What is its recorded melting point?
101 to 103 °C

---

Below, each entry is listed with its recorded melting point.

Solved cases below.
Cc1c(C(=O)O)cc(Br)cc1S(=O)(=O)Cl : 139 to 141 °C
O=C(O)CCn1ccccc1=O : 146 to 148 °C

Consider the compound shown here: NC(=O)CC1CCCCC1 What is its recorded melting point?
165 to 167 °C

Consider the compound shown here: CC(C)CCNS(=O)(=O)c1ccc(Cl)nc1 What is its recorded melting point?
91 to 93 °C

Consider the compound shown here: Cc1cc(OCC(=O)O)no1 What is its recorded melting point?
123 to 125 °C

Consider the compound shown here: O=C(O)c1ccc(N2CCc3ccccc3C2)cc1 What is its recorded melting point?
209 to 211 °C

Consider the compound shown here: O=C1C2C3CC4C5C3C1C5C1(OCCO1)C42 (stereo unspecified) What is its recorded melting point?
73 to 75 °C

Consider the compound shown here: Nc1ccc(-n2ccnn2)cc1 What is its recorded melting point?
137 to 139 °C

Consider the compound shown here: CNC(=O)NCC(=O)O What is its recorded melting point?
138 to 140 °C

Consider the compound shown here: CC(=O)NC1(c2noc(CCC(=O)O)n2)CCCCCC1 What is its recorded melting point?
149 to 151 °C

Consider the compound shown here: O=C(O)c1cc(-c2ccccc2)nc2nc(N3CCCCC3)sc12 What is its recorded melting point?
347 to 349 °C

---

Below, each entry is listed with its recorded melting point.

Solved cases below.
O=Cc1ccc(-c2cccc(F)c2)s1 : 101 to 103 °C
ClCc1csc(COc2ccc(Cl)cc2)n1 : 75 to 77 °C
Brc1nnc(Cc2ccccc2)s1 : 79 to 81 °C

Consider the compound shown here: Nc1cccc(Sc2ccc(Cl)cc2)c1 What is its recorded melting point?
58 to 60 °C

Consider the compound shown here: CCN(CC)C(=O)c1ccc(O)cc1 What is its recorded melting point?
120 to 122 °C

Consider the compound shown here: O=C(O)c1ccc(O)c(-c2ccccc2)c1 What is its recorded melting point?
142 to 144 °C

Consider the compound shown here: Cc1ccc(F)c(-c2nc(C(=O)O)no2)c1 What is its recorded melting point?
107 to 109 °C

Consider the compound shown here: O=C(CCl)c1cc2c3c(c1)CC(=O)N3CCC2 What is its recorded melting point?
159 to 161 °C

Consider the compound shown here: Cn1cc(N2CCNCC2=O)cn1 What is its recorded melting point?
123 to 125 °C

Consider the compound shown here: CC(C)(C)OC(=O)N1CCCCC1C#N (stereo not drawn) What is its recorded melting point?
62 to 66 °C

---

parameter.measured: melting point

Solved cases below.
CCOc1cc(C(=O)O)ccc1OCC(=O)OC : 129 to 131 °C
O=C1COc2cc(S(=O)(=O)Cl)c(Cl)cc2N1 : 248 to 250 °C
O=Cc1ccc(Br)nc1 : 104 to 110 °C
Nc1ccc(-c2nc3ccccc3s2)cn1 : 187 to 189 °C

Consider the compound shown here: COc1nc(Cl)c(C=O)s1 What is its recorded melting point?
43 to 45 °C

---

Below, each entry is listed with its recorded melting point.

Solved cases below.
Nc1n[nH]c2nc3ccccc3cc12 : 314 to 316 °C
O=Cc1sc(Cl)nc1Cl : 38 to 42 °C
Nn1cnc2ccccc21 : 147 to 149 °C
CCc1cc(=O)[nH]c(-c2cccnc2)n1 : 151 to 153 °C
O=C(O)c1csc(-c2cccc3ccccc23)n1 : 144 to 146 °C

Consider the compound shown here: O=C(O)C1SCCc2ccccc21 (configuration not stated) What is its recorded melting point?
130 to 132 °C

Consider the compound shown here: O=Cc1cnc(-c2ccsc2)s1 What is its recorded melting point?
107 to 109 °C

Consider the compound shown here: O=C(O)Cn1nc(-c2ccccc2)ccc1=O What is its recorded melting point?
237 to 239 °C

Consider the compound shown here: COc1cc(NC(=O)CCCl)cc(OC)c1OC What is its recorded melting point?
117 to 119 °C

---

Below, each entry is listed with its recorded melting point.

Solved cases below.
CN(C)S(=O)(=O)c1cc(C(=O)O)n(C)c1 : 159 to 161 °C
Cc1cc(Br)cc(Cl)c1OCC(=O)O : 197 to 199 °C
NC(=O)C1Cc2[nH]cnc2CN1 (configuration not stated) : 249 to 251 °C
O=[N+]([O-])c1cc(F)ccc1S(=O)(=O)Cl : 40 to 44 °C
Nc1ncnc(Cl)c1C=O : 159 to 161 °C
Cc1ccc(NC(=O)N(C)C)c(C(=O)O)c1 : 163 to 165 °C

We next turn to a different compound, shown below.
Consider the compound shown here: NC(CC(=O)O)c1cccc(Cl)c1 (configuration not stated) What is its recorded melting point?
227 to 229 °C

---

parameter.measured: melting point

CC(C)NC(=O)N1CCC(C(=O)O)CC1 : 137 to 139 °C
CS(=O)(=O)c1cc(Br)ccc1N : 129 to 131 °C
C=CS(=O)(=O)Oc1ccccc1 : 39 to 42 °C
CCn1c(S)nnc1-c1ccccc1OC : 171 to 173 °C
O=c1c(Cl)c(Cl)cnn1-c1cccc(C(F)(F)F)c1 : 92 to 94 °C

Consider the molecule shown here: CC(C)c1ccc(S(=O)(=O)N2CC(O)CC2C(=O)O)cc1 (stereo unspecified) What is its recorded melting point?
153 to 155 °C

Consider the molecule shown here: CCOC(=O)c1cc(CC)sc1NC(=O)CCl What is its recorded melting point?
74 to 76 °C

Consider the molecule shown here: CC(=O)CC(=O)c1ccncc1 What is its recorded melting point?
63 to 65 °C

Consider the molecule shown here: O=C(O)c1cc(C(F)(F)F)ccc1SC1CCCC1 What is its recorded melting point?
174 to 176 °C

Consider the molecule shown here: CN1CCN(C(N)=O)C(c2ccccc2)C1 (stereo unspecified) What is its recorded melting point?
94 to 96 °C

Consider the molecule shown here: NC(=O)CCCC(=O)O What is its recorded melting point?
83 to 85 °C

---

Below, each entry is listed with its recorded melting point.

Solved cases below.
CC1=NNC(=O)C1CCN (centres undefined) : 229 to 231 °C
Cc1ccc(F)cc1Nc1ncc(C(=O)O)cc1Cl : 209 to 211 °C
CCCCCC(C)CNC(=S)NN (centres undefined) : 48 to 50 °C
C#CCN1C(=O)C(=O)c2ccccc21 : 153 to 155 °C

We next turn to a different compound, shown below.
Consider the compound shown here: O=Cc1c(F)cccc1N1CCCC1 What is its recorded melting point?
41 to 43 °C

---

Below, each entry is listed with its recorded melting point.

Solved cases below.
Cc1ccc(C)c(NC(=S)NN)c1 : 162 to 164 °C
CCOC(=O)c1ccc2c(c1)nc(CCl)n2CC : 91 to 93 °C
NC(=O)C1CC(C(=O)O)=NN1c1ccc(F)cc1 (stereo unspecified) : 219 to 221 °C
NC(=O)CC1CC1 : 125 to 127 °C
Cc1ccc(S(=O)(=O)NC(CCC(N)=O)C(=O)O)cc1C (stereo unspecified) : 171 to 173 °C

Consider the molecule shown here: CC(O)c1nc2cc(Cl)ccc2n1C (stereo unspecified) What is its recorded melting point?
136 to 138 °C

---

parameter.measured: melting point

Cc1[nH]n(-c2ccc(Cl)c(Cl)c2)c(=N)c1C : 156 to 158 °C

Consider the compound shown here: CCNc1ccc(C(=O)OCC)cc1[N+](=O)[O-] What is its recorded melting point?
91 to 95 °C

Consider the compound shown here: O=C(O)C1CCN(S(=O)(=O)c2cccc(C(F)(F)F)c2)CC1 What is its recorded melting point?
135 to 136 °C

Consider the compound shown here: O=C(O)C1CSCN1C(=O)C1CCCC1 (configuration not stated) What is its recorded melting point?
114 to 116 °C

Consider the compound shown here: Cc1nn(C)cc1C=O What is its recorded melting point?
46 to 48 °C

Consider the compound shown here: COc1ccc(NC(=O)CCl)c([N+](=O)[O-])c1 What is its recorded melting point?
98 to 100 °C
